- System: E. coli (ATCC 25922)
- Assay Summary: In vitro anti-E. coli CFU assay
- Type: cell-based, Escherichia coli
- Settings: peptide 0.128 mg/mL + CuCl2 (0.9:1), 24 h, pH 5.4; per 0.1 mL
Residues, ends and D or L forms follow the SMILES beside them.

>  <Compound>
CC[C@H](C)[C@H](NC(=O)[C@H](C)NC(=O)[C@@H](NC(C)=O)C(C)C)C(=O)N[C@@H](C)C(=O)N[C@@H](CC(C)C)C(=O)N[C@@H](CCCCN)C(=O)N[C@@H](C)C(=O)N[C@@H](C)C(=O)N[C@@H](Cc1c[nH]cn1)C(=O)N[C@@H](Cc1ccc(O)cc1)C(=O)N[C@@H](Cc1c[nH]cn1)C(=O)N[C@H](C(=O)N[C@@H](Cc1c[nH]cn1)C(=O)N[C@@H](CCCCN)C(=O)N[C@@H](CCC(=O)O)C(N)=O)[C@@H](C)O [L2, Ac-VAIALKAAHYHTHKE-NH2] (Ac-VAIALKAAHYHTHKE-NH2)

>  <mean CFU number ± S.D., CFU>
136

$$$$

---

- Tested on: C. albicans (ATCC 10231)
- Assay Summary: In vitro antifungal CFU assay
- Assay type: cell-based, Candida albicans
- Settings: peptide 0.032 mg/mL + ZnCl2 (0.9:1), 24 h, pH 5.4
Residues, ends and D or L forms follow the SMILES beside them.
Property: CFU decrease/increase with respect to untreated controls

>  <Molecule>
CC[C@H](C)[C@H](NC(=O)[C@H](C)NC(=O)[C@@H](NC(C)=O)C(C)C)C(=O)N[C@@H](C)C(=O)N[C@@H](CC(C)C)C(=O)N[C@@H](CCCCN)C(=O)N[C@@H](C)C(=O)N[C@@H](C)C(=O)N[C@@H](Cc1c[nH]cn1)C(=O)N[C@@H](Cc1ccc(O)cc1)C(=O)N[C@@H](Cc1c[nH]cn1)C(=O)N[C@H](C(=O)N[C@@H](Cc1c[nH]cn1)C(=O)N[C@@H](CCCCN)C(=O)N[C@@H](CCC(=O)O)C(=O)O)[C@@H](C)O [L1, Ac-VAIALKAAHYHTHKE] (Ac-VAIALKAAHYHTHKE-OH)

>  <Experimental System>
C. albicans (ATCC 10231)

>  <Recorded Result>
-2%

$$$$
>  <Molecule>
CC[C@H](C)[C@H](NC(=O)[C@H](C)NC(=O)[C@@H](N)C(C)C)C(=O)N[C@@H](C)C(=O)N[C@@H](CC(C)C)C(=O)N[C@@H](CCCCN)C(=O)N[C@@H](C)C(=O)N[C@@H](C)C(=O)N[C@@H](Cc1c[nH]cn1)C(=O)N[C@@H](Cc1ccc(O)cc1)C(=O)N[C@@H](Cc1c[nH]cn1)C(=O)N[C@H](C(=O)N[C@@H](Cc1c[nH]cn1)C(=O)N[C@@H](CCCCN)C(=O)N[C@@H](CCC(=O)O)C(N)=O)[C@@H](C)O [L3, VAIALKAAHYHTHKE-NH2] (H-VAIALKAAHYHTHKE-NH2)

>  <Experimental System>
C. albicans (ATCC 10231)

>  <Recorded Result>
+2%

$$$$
>  <Molecule>
CC[C@H](C)[C@H](NC(=O)[C@H](C)NC(=O)[C@@H](NC(C)=O)C(C)C)C(=O)N[C@@H](C)C(=O)N[C@@H](CC(C)C)C(=O)N[C@@H](CCCCN)C(=O)N[C@@H](C)C(=O)N[C@@H](C)C(=O)N[C@@H](Cc1c[nH]cn1)C(=O)N[C@@H](Cc1ccc(O)cc1)C(=O)N[C@@H](Cc1c[nH]cn1)C(=O)N[C@H](C(=O)N[C@@H](Cc1c[nH]cn1)C(=O)N[C@@H](CCCCN)C(=O)N[C@@H](CCC(=O)O)C(N)=O)[C@@H](C)O [L2, Ac-VAIALKAAHYHTHKE-NH2] (Ac-VAIALKAAHYHTHKE-NH2)

>  <Experimental System>
C. albicans (ATCC 10231)

>  <Recorded Result>
+14%

$$$$
